- Method: ELF pharmacokinetics in the COMBINE murine neutropenic pneumonia model
- Conditions Used: female, CD-1, mouse, epithelial lining fluid (ELF), sc
Reported k el by item:

Compound	Value Unit	k el
CC(C)(O/N=C(\C(=O)N[C@@H]1C(=O)N2C(C(=O)[O-])=C(C[N+]3(CCNC(=O)c4ccc(O)c(O)c4Cl)CCCC3)CS[C@H]12)c1csc(N)n1)C(=O)O [Cefiderocol, cefiderocol]	s⁻¹	0.0002
NC[C@H]1O[C@H](O[C@H]2[C@H](O)[C@@H](O[C@H]3O[C@H](CO)[C@@H](O)[C@H](N)[C@H]3O)[C@H](N)C[C@@H]2N)[C@H](N)C[C@@H]1O [Tobramycin, tobramycin]	s⁻¹	9.72e-05
C[C@@H](O)[C@H]1C(=O)N2C(C(=O)O)=C(S[C@@H]3CN[C@H](C(=O)N(C)C)C3)[C@H](C)[C@H]12 [Meropenem, meropenem]	s⁻¹	0.000694

###

- Method: Ex vivo tobramycin plasma protein binding in mice
- Format: in vitro ADME
- Conditions Used: subcutaneous; mouse plasma, average of 2.5, 5 and 10 mg/kg; read-out: Plasma protein binding, average across the three doses (converted)

Compound	fraction unbound at 1 h
NC[C@H]1O[C@H](O[C@H]2[C@H](O)[C@@H](O[C@H]3O[C@H](CO)[C@@H](O)[C@H](N)[C@H]3O)[C@H](N)C[C@@H]2N)[C@H](N)C[C@@H]1O [Tobramycin, tobramycin]	0.776

###

- Method: Ex vivo tobramycin plasma protein binding in mice
- Format: in vitro ADME
- Conditions Used: subcutaneous; mouse plasma, 1 h after 5 mg/kg subcutaneously, ultrafiltration; read-out: Mean percentage of protein binding (±standard deviation) (converted)
Readout Name: fraction unbound at 1 h

Molecule	Reported Value
NC[C@H]1O[C@H](O[C@H]2[C@H](O)[C@@H](O[C@H]3O[C@H](CO)[C@@H](O)[C@H](N)[C@H]3O)[C@H](N)C[C@@H]2N)[C@H](N)C[C@@H]1O [Tobramycin, tobramycin]	0.795

###

- Method: Ex vivo tobramycin plasma protein binding in mice
- Type: in vitro ADME
- Conditions Used: subcutaneous; mouse plasma, 1 h after 10 mg/kg subcutaneously, ultrafiltration; read-out: Mean percentage of protein binding (±standard deviation) (converted)
Readout Name: fraction unbound at 1 h

>>> df
                            molecule_smiles  reported_value
0  NC[C@H]1O[C@H](O[C@H]2[C@H](O)[C@@H](O[C@H]3O[C@H](CO)[C@@H](O)[C@H](N)[C@H]3O)[C@H](N)C[C@@H]2N)[C@H](N)C[C@@H]1O           0.802

###

- Method: Ex vivo tobramycin plasma protein binding in mice
- Assay type: in vitro ADME
- Conditions Used: subcutaneous; mouse plasma, 1 h after 2.5 mg/kg subcutaneously, ultrafiltration; read-out: Mean percentage of protein binding (±standard deviation) (converted)
- Experimental: Escalating single doses of tobramycin (2.5, 5 and 10 mg/kg) were administered subcutaneously to determine tobramycin plasma protein binding. […] The triplicate free and total tobramycin concentrations were averaged and then free fractions were calculated using the equation: free fraction = concentrationultrafiltrate/concentrationtotal plasma. […]
Readout Name: fraction unbound at 1 h

Compound	Reported Value
NC[C@H]1O[C@H](O[C@H]2[C@H](O)[C@@H](O[C@H]3O[C@H](CO)[C@@H](O)[C@H](N)[C@H]3O)[C@H](N)C[C@@H]2N)[C@H](N)C[C@@H]1O [Tobramycin, tobramycin]	0.729
